Overview of reported half-life across a group of compounds:
System: porcine liver esterase
assay overview: Rate of hydrolysis in buffered porcine liver esterase at 37° C. (HPLC or HPLC-MS)
Type: in vitro ADME
experimental context: pig
Protocol: To assess whether the synthesised cilazapril prodrugs undergo enzymatic cleavage, metabolic studies were carried out in three well established incubation media for the investigation of transdermal administration. […] The kinetics of the hydrolysis of the cilazapril prodrugs in the different incubation media was analysed by HPLC or HPLC-MS. […]
measured metric: half-life (min)

compound | numeric result
CCOC(=O)[C@H](CCc1ccccc1)NC1CCCN2CCC[C@@H](C(=O)OC(C)OC(=O)OC(C)C)N2C1=O (stereo partly shown) | 90
CCOC(=O)[C@H](CCc1ccccc1)N[C@H]1CCCN2CCC[C@@H](C(=O)O)N2C1=O [cilazapril, reference compound] | 198
CCOC(=O)[C@H](CCc1ccccc1)NC1CCCN2CCC[C@@H](C(=O)OC(C)OC(=O)CN3CCOCC3)N2C1=O (stereo partly shown) | 46.2
CCOC(=O)OC(C)OC(=O)[C@@H]1CCCN2CCCC(N[C@@H](CCc3ccccc3)C(=O)OCC)C(=O)N12 (stereo partly shown) | 40.2
